These data points were gathered from patent US20250145697A1.

Hi there, I'd appreciate the recorded pKd for every entry that follows.
Target Desc: T1, recombinant alipidated human ApoE4 (human, UniProt P02649 19-317)
T1 construct: mature; full length recombinant protein made in E. coli or bought; biotinylated for SPR; position 112 is counted on the mature protein, not on the precursor entry; also called recApoE; non-lipidated ApoE4
T1 sequence (P02649 19-317 C130R): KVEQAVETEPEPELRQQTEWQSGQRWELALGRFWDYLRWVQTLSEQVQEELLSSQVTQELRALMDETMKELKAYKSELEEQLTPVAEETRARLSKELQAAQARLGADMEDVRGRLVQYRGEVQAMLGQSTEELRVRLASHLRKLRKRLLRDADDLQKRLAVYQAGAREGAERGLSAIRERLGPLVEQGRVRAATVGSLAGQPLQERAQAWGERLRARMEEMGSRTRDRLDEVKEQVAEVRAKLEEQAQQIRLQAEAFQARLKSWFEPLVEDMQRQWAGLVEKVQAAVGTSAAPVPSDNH
Measurement Description: SPR (Biacore T200), biotinylated ApoE4 captured on anti-biotin mAb chip, antibody injected, 1:1 fit
Method: The affinity of several anti-ApoE antibodies for ApoE4 was determined by surface plasmon resonance using a BIAcore T200. Anti-biotin monoclonal mouse antibody was immobilized on a Biacore Series S CM5 sensor chip. Biotinylated recombinant alipidated ApoE4 was then captured on to the chip. Serial dilutions of each antibody were injected at a flow rate of 30 μl/min. Each sample was analyzed, for example, with 3-minute association and 10-minute dissociation. […]
Give bare numbers, as −log10 of the molar value.

Past entries and their recorded results:
HJ159 (antibody, V domains shown, murine monoclonal antibody from hybridoma) VH: QVQLQQSGPDLVKPGASVKISCKASGYTFIDYYINWAKQRPGQGLEWIGWIFPGSGSTYYNEKFKGKATLTVDKSSSTAYMFLSSLTSEDSAVFFCARYYGSSPFAYWGQGTLVTVSA VL: DVLMTQTPLSLPVSLGDQASISCRSSQNIVYSNGNTYLEWYLQKPGQSPKLLIYKVSNRFSGVPDRFSGSGSGTYFTLKISRVEAEDLGIYYCFQGSHVPYTFGGGTKLEIKR = 6.41
HJ152 (antibody, V domains shown, murine monoclonal antibody from hybridoma; also called HJ152B (biotinylated)) VH: EVKLEESGGGLVQPGGSMKLSCAASGFSFSDAWMDWVRQSPEKGLEWVAEIRNKADNHATFYAESVKGRFTISRDDSKSSVYLQMNSLRAEDSGIYYCLLWDYWGQGTTLTVSS VL: DIVMSQSPSSLAVSAGEKVTMSCKSSQSLLNSRTRKHFLAWYQQKPGQSPKVLIYWASSRESGVPDRFTGSGSGTDFTLTISSVQAEDLAVYYCKQSCNLPWTFGGGTKLEIKR = 6.60
HJ1526 (antibody, V domains shown, murine monoclonal antibody from hybridoma) VH: QVQLQQPGTALVKPGASVKLSCKSSGYTFTDYWVHWVKQRPGQGLEWIGNINPRNGGINYNENFKGKAILTVDRSFSIAYMQLNSLTSEDSAVYYCARPGATVVHRTPWFAHWGQGTLVTVSA VL: EIVLTQSPALMAASPGEKVTITCSVSSSISSSNLHWFQQKSETSPKPWIFGTSYLASGVPVRFSGSGSGTSYSLTISSMEAEDAATYYCQQWNSYPLTFGAGTKLELR = 6.17
HJ153 (antibody, V domains shown, murine monoclonal antibody from hybridoma; also called HJ153B (biotinylated)) VH: QVQLQQPGAELVKPGASVKLSCKASGYTFTSYWMHWVKQRPGRGLEWIGEIDPSDGFTYNNQNFKDKSTLTVDRSSGTAYLQLSSLTSEDSAVYYCAGSLGRIGLAYWGHGTLVTVSA VL: QIVLTQSPAIMSASPGEKVTISCSASSSVTYMYWYQQKPGASPKSWIYRTSNLASGVPARFSGSGSGTSYSLTISSMEAEDAATYYCQQFQSYPLTFGAGTKLELKR = 9.37
HJ156 (antibody, V domains shown, murine monoclonal antibody from hybridoma; also called HJ156B (biotinylated)) VH: QVQLQQSGPELVKPGASVKISCKASGYIFTDYYINWVKRRPGQGLEWIGWIFPGSGVSYYNEQFKGKATLTVDKPSNTAYIFLSRLTSEDSAVYFCARYYSSSPFAYWGQGTLVTVSA VL: DVLMTQTPLSLPVSLGDQASISCRSSQNIIHSNGNTYLEWFLQRPGQSPELLIYKVSNRFSGVPDRFSGSGSGTDFTLKISRVEAEDLGVYYCFQGSHVPYTFGGGTKLEIKR = 6.67

For each of the items listed, what is its pKd?
1. HJ1518 (antibody, V domains shown, murine monoclonal antibody from hybridoma) VH: QVQLQQSGPELVKPGASVKISCKASGYTFSDYYINWVKQRPGQGLEWIGWIFPGSGSSYYNEKFKGKATLTVDKSSRTAYMLLSSLTSEDSAVYFCARYYGSSPFAYWGQGTLVTVST VL: DVLMTQSPLSLPVSLGDQASISCRSSQSIVHRNGNTYLEWYLQKPGQSPKLLIYKVSNRFSGVPDRFSGSGSGTDFTLKISRVEAEDLGVYYCFQGSHVPYTFGGGTKLEIRR
2. HJ151 (antibody, V domains shown, murine monoclonal antibody from hybridoma; also called HJ151B (biotinylated)) VH: QVQLQQSGAELVRPGASVTLSCKASGYTFTDYEMHWVKQTPVHGLEWIGVIDPEKGGTAYNQKFKGKAILTADKSSSTAYMDLRSLTSEDSAVYYCLKDSWGQGTTLTVSS VL: DVLMTQTPLSLPVSLGDQASISCRSSQTIVHSDGNTYLEWYLQKPGQSPKLLIYKVSNRFSGVPDRFSGSGSGTYFTLKISRVEAEDLGVYYCFQGSHVPCTFGGGTKLEIKR
3. HJ1513 (antibody, V domains shown, murine monoclonal antibody from hybridoma) VH: QIQLQQSGPELVKPGASVKISCKASGYTFTDYYINWVRQRPGQGLEWIGWIYPESFNTYYNEKFKGKATLTVDTSSNTAYMQLSSLTSEDSAVYFCARYYVSSPFAYWGQGTLVTVSA VL: DVLMTQTPLSLPVSLGDQASISCRSSQNIIHSNGNTYLEWFLQKPGQSPKLLIYKVSNRFSGVPDRFSGSGSGTDFTLKISRVEAEDLGVYYCFQGSHVPYTFGGGTKLEIKR
4. HJ154 (antibody, V domains shown, murine monoclonal antibody from hybridoma; also called HJ154B (biotinylated)) VH: QVQLQQPGTEFVMSGASVMLSCKASGYIFTNYWLHWVKQRPGHGLEWIGEIDPSDSYSICNDNFKGKSTLTVDKSSSTAYMQLSSLTSEDSAVYYCAGSLGRVGLAYWGQGTLVTVST VL: QIVLTQSPAIMSASPGEKVTMSCSASSSVSNMYWYQQKPGSSPKSWIYRTSNLASGVPARFSGSGSGTSYSLTISNMEAEDAATYYCQHYQNYPLTFGAGTKLELKR

Output:
1. 6.69
2. 7.22
3. 6.87
4. 9.17
